# assay system: UniProt O43614
# experiment: Human orexin 2 receptor radioligand binding (competitive, [3H]-EMPA, HEK293 cell preparations)
# assay setup: hOX2 Ki (nm)
In this section we review reported log10 of Ki values for a set of molecules.
The base-10 logarithm of Ki, taken with Ki in nM, is what appears here.

O=C(c1ccccc1-c1cccs1)N1[C@@H]2CC[C@H]1[C@H](COc1ccc(F)cn1)C2 (single isomer, unassigned) [Example 12A] ... 2.53

Shifting focus to the molecule that follows.
Any idea what its log10 of Ki is? The molecule is Cc1ccc(C(=O)N2C3CCC2C(COc2cccc(C(F)(F)F)n2)C3)c(-n2ccnn2)n1 (racemic)
3.51

====

# log10(Ki) values compiled below
# assay system: human orexin 2 receptor (Homo sapiens (Human), UniProt O43614)
# Sequence (O43614 whole entry): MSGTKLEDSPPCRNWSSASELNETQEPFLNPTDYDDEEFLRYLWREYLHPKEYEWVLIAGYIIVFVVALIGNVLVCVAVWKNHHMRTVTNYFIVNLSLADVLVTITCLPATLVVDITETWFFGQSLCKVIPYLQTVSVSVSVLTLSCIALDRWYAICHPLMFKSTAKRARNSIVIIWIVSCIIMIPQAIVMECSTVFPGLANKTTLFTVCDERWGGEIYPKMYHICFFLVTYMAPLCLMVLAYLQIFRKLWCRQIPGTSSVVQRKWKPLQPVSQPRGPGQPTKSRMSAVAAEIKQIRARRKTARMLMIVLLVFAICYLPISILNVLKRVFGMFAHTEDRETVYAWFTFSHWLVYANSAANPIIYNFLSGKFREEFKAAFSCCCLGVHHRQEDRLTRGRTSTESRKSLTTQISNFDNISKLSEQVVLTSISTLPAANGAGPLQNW
# experiment: Human orexin 2 receptor radioligand binding (competitive, [3H]-EMPA, HEK293 cell preparations)
# assay setup: human orexin 2 receptor, [3H]-EMPA competition binding; read-out: hOX2 Ki (nm)
All values: log10 Ki [nM].

Cc1ccc(OCC2CC3CCC2N3C(=O)c2ccc(C)nc2-n2nccn2)nc1 (racemic) [Example 135] ... 3.59

Recorded log10(Ki) of COc1c(F)cccc1C(=O)N1C2CCC1C(COc1ccc(Br)cn1)C2 (racemic) [Example 50] , please.
3.64

# get_value(readout='log10(Ki)', item= Cc1ccnc(OCC2CC3CCC2N3C(=O)c2cc(C)ccc2-n2nccn2)c1 (racemic) [Example 17] )
1.84

For the compound Cc1ccc(-n2nccn2)c(C(=O)N2C3CCC2C(COc2cccc(C)n2)C3)c1 (racemic) [Example 18] , what log10(Ki) is on record?
1.64

====

# assay system: human orexin 1 receptor (Homo sapiens (Human), UniProt O43613)
# Sequence (O43613 whole entry): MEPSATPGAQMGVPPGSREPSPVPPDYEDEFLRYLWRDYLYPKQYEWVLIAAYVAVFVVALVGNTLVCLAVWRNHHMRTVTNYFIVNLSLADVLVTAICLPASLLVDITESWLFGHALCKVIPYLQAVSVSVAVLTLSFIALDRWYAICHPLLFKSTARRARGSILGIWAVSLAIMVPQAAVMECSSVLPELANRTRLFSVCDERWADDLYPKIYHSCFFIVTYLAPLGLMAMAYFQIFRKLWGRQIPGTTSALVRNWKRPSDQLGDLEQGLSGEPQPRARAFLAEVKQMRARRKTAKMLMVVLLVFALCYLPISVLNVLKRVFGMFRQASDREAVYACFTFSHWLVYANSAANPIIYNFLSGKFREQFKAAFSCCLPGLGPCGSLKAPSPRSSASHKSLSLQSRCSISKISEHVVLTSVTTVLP
# experiment: Human orexin 1 receptor radioligand binding (competitive, [3H]-SB674042, CHO cell preparations)
# assay setup: hOX1 Ki (nm)
Listed here are compounds together with their documented log10 of Ki.
Please note: log10 values; quantity Ki; unit nM.

A selection of reference data follows.
Cc1ccc(-c2ncccn2)c(C(=O)N2C3CCC2C(Nc2cnc4ccccc4n2)C3)n1 (racemic) ... 1.48
Cc1cc(-c2ccc(C)nc2C(=O)N2C3CCC2C(COc2ccc(F)cn2)C3)on1 (racemic) ... 1.81
Cc1ccc(-n2nccn2)c(C(=O)N2C3CCC2C(COc2nccc(C(F)(F)F)n2)C3)c1 (racemic) ... 2.07

I am curious: what log10 of Ki value has been reported for O=C(c1cccc(F)c1-n1nccn1)N1C2CCC1C(COc1ccc(F)cn1)C2 (racemic) ?
1.91

What log10 of Ki value was documented for this compound, Cc1ccc2ccccc2c1C(=O)N1C2CCC1C(COc1ccc(F)cn1)C2 (racemic) ?
1.87

Requested read-out: log10 of Ki. Entry: Cc1cc(C)nc(NC2CC3CCC2N3C(=O)c2cc(F)ccc2-n2nccn2)n1 (racemic)
3.95

GET /values?readout=log10 of Ki&item= O=C(c1ccccc1-c1cccs1)N1[C@@H]2CC[C@H]1[C@H](COc1ccc(F)cn1)C2 (single isomer, unassigned) [Example 12A]
2.25

I'd like to know its log10 of Ki. The compound in question is O=C(c1cccc(F)c1-c1ncccn1)N1[C@@H]2CC[C@H]1[C@H](Nc1ccc(C(F)(F)F)cn1)C2
0.90

Param item = O=C(c1ccccc1-n1nccn1)N1C2CCC1C(Nc1cnc3ccccc3n1)C2 (racemic) ; retrieve measured log10 of Ki.
1.40

====

# assay system: rat orexin 1 receptor (Rattus norvegicus, UniProt P56718)
# experiment: Rat orexin 1 receptor radioligand binding (competitive, [3H]-SB674042, HEK293 cell preparations)
# assay setup: rat orexin 1 receptor, [3H]-SB674042 competition binding; read-out: rOX1 Ki (nm)
quantity name: Ki (nM)
Numeric only. Scale: nM

CN(c1cnc(C(F)(F)F)cn1)[C@@H]1C[C@H]2CC[C@@H]1N2C(=O)c1cccc(F)c1-c1ncccn1 [Example 282] ... 486
Cc1ccnc(C(=O)N2C3CCC2C(COc2ccccn2)C3)c1-n1nccn1 (racemic) [Example 72] ... 137

In the following, a different compound is considered.
What Ki appears in the records for this compound with rat orexin 1 receptor (Rattus norvegicus, UniProt P56718)? O=C(c1ccc(F)cc1-n1nccn1)N1C2CCC1C(COc1ccc(F)cn1)C2 (racemic) [Example 116]
142

====

# assay system: human orexin 2 receptor (Homo sapiens (Human), UniProt O43614)
# experiment: Human orexin 2 receptor radioligand binding (competitive, [3H]-EMPA, HEK293 cell preparations)
# assay setup: human orexin 2 receptor, [3H]-EMPA competition binding; read-out: hOX2 Ki (nm)
In this section we review reported pKi values for a set of compounds.
The scale used: pKi is minus the common logarithm of the concentration in molar units.

Examples with answers:
Cc1cc(C)nc(NC2CC3CCC2N3C(=O)c2c(F)cccc2-n2nccn2)n1 (racemic) ... 6.15
Cc1noc(-c2ccccc2C(=O)N2C3CCC2C(COc2ccccn2)C3)n1 (racemic) ... 5.96
O=C(c1ncc(Cl)cc1-n1nccn1)N1C2CCC1C(COc1ccc(F)cn1)C2 (racemic) ... 6.00
Cc1ccc(C(=O)N2C3CCC2C(COc2nccc(C(F)(F)F)n2)C3)c(-n2ccnn2)n1 (racemic) ... 5.13

Could you now look at the following compound, please?
Give its pKi value. Item: Cc1ccc(-n2ccc(C)n2)c(C(=O)N2C3CCC2C(COc2ccc(F)cn2)C3)n1 (racemic)
6.59

====

# assay system: human orexin 1 receptor (Homo sapiens (Human))
# experiment: Human orexin 1 receptor radioligand binding (competitive, [3H]-SB674042, CHO cell preparations)
# assay setup: hOX1 Ki (nm)
Item-by-item account of pKi
Scale note: pKi = -log10(concentration in M).

Examples with answers:
Cc1ccc(-n2nccn2)c(C(=O)N2C3CCC2C(COc2ccc(C(F)(F)F)cn2)C3)c1 (racemic) ... 7.30
Cc1ccc(-n2nccn2)c(C(=O)N2C3CCC2C(Nc2cnc4ccccc4n2)C3)n1 (racemic) ... 7.30
O=C(c1cc(F)ccc1-c1ccn[nH]1)N1C2CCC1C(COc1ccc(F)cn1)C2 (racemic) ... 7.70

Looking for the measured pKi of O=C(c1ccccc1-n1nccn1)N1C2CCC1C(Nc1cnc(C(F)(F)F)cn1)C2 (single isomer, unassigned) [Example 183b] , can you help?
7.55

Consider the compound CCOc1ccccc1C(=O)N1C2CCC1C(COc1ccc(F)cn1)C2 (racemic) and give its measured pKi.
6.39

Record request: pKi value, item Cc1ccc(-c2ncccn2)c(C(=O)N2C3CCC2C(COc2cnc4ccccc4n2)C3)c1 (racemic)
6.92

Given the entry Cc1ccc(-n2nccn2)c(C(=O)N2C3CCC2C(COc2ccc(Br)cn2)C3)n1 (racemic) , report its measured pKi.
7.16

So what's the measured pKi for this one? O=C(c1ccccc1-n1nccn1)N1[C@@H]2CC[C@H]1[C@H](Nc1cnc(C(F)(F)F)cn1)C2
7.55

What value of pKi has been reported for the following compound? Cc1ccc(-n2nccn2)c(C(=O)N2C3CCC2C(COc2ncccc2C(F)(F)F)C3)c1 (racemic)
7.25

Could you tell me which pKi is on file for Cc1cccc(C(=O)N2C3CCC2C(COc2ccc(F)cn2)C3)c1-n1nccn1 (racemic) ?
7.54

Query: pKi; subject: COc1ccc(-n2nccn2)c(C(=O)N2C3CCC2C(COc2ccc(F)cn2)C3)c1 (racemic)
7.32

Please look up its pKi: O=C(c1cccc(F)c1-c1ncccn1)N1C2CCC1C(Nc1ccc(C(F)(F)F)cn1)C2 (racemic)
7.28

For Cc1ccc(-n2nccn2)c(C(=O)N2C3CCC2C(COc2ncccc2C)C3)n1 (racemic) , what is its reported pKi?
6.82

// pKi lookup, key: Cc1ccc(-c2ncccn2)c(C(=O)N2C3CCC2C(Nc2ccc(Br)cn2)C3)n1 (racemic)
7.40

Please look up its pKi: Cc1ccc(-n2nccn2)c(C(=O)N2C3CCC2C(COc2nc(C)cc(C)n2)C3)c1 (racemic)
7.54

====

# assay system: human orexin 2 receptor (Homo sapiens (Human))
# experiment: Human orexin 2 receptor radioligand binding (competitive, [3H]-EMPA, HEK293 cell preparations)
# assay setup: human orexin 2 receptor, [3H]-EMPA competition binding; read-out: hOX2 Ki (nm)
quantity name: pKi
# pKi: negative log10 of molar concentration; output just the value

Cc1noc(-c2ccccc2C(=O)N2C3CCC2C(COc2cnc4ccccc4n2)C3)n1 (racemic) ... 5.70
Cc1ccc(-c2ncccn2)c(C(=O)N2C3CCC2C(COc2cnc4ccccc4n2)C3)c1 (racemic) ... 6.42
Cc1cc(-c2ccc(C)nc2C(=O)N2C3CCC2C(COc2ccc(F)cn2)C3)on1 (racemic) ... 6.76
Cc1ccc(-n2nccn2)c(C(=O)N2C3CCC2C(COc2ncccc2C)C3)n1 (racemic) [Example 55] ... 6.69
Cc1nc(C(=O)N2C3CCC2C(COc2ccccn2)C3)c(-c2ccccc2)s1 (racemic) ... 6.66

Need pKi, item Cc1ccc(C(=O)N2C3CCC2C(COc2ccccn2)C3)c(-n2ccnn2)n1 (racemic)
5.14

Quick one: pKi of O=C(c1cccc(F)c1-c1ncco1)N1[C@@H]2CC[C@H]1[C@H](Nc1ncc(C(F)(F)F)cn1)C2 ?
5.77

What value of measured pKi is listed for O=C(c1ccccc1-n1nccn1)N1C2CCC1C(Nc1nc3cc(Cl)ccc3o1)C2 (racemic) ?
6.32

pKi lookup needed for COc1cccc(OC)c1C(=O)N1C2CCC1C(COc1ccc(F)cn1)C2 (racemic) , thanks.
6.81

Query: pKi; subject: Cc1ccc(-n2nccn2)c(C(=O)N2C3CCC2C(COc2cnc4ccccc4n2)C3)c1 (racemic)
6.97

Requested field: pKi. Item: Cc1cc(C)nc(OCC2CC3CCC2N3C(=O)c2ccccc2-c2nc(C)no2)n1 (racemic)
6.36

Consider the molecule O=C(c1cc(Cl)ccc1-n1nccn1)N1C2CCC1C(COc1ccc(F)cn1)C2 (racemic) and give its measured pKi.
6.91

Suppose we examine the molecule O=C(c1cc(F)ccc1-c1ncccn1)N1C2CCC1C(COc1ccc(F)cn1)C2 (racemic) ; what pKi value has been reported?
6.91
